Recorded values, source patent US7834048B2.

- assayed.target: human dopamine D3 receptors (Homo sapiens)
- Construct: expressed in transfected cells
- Sequence (P35462 whole entry): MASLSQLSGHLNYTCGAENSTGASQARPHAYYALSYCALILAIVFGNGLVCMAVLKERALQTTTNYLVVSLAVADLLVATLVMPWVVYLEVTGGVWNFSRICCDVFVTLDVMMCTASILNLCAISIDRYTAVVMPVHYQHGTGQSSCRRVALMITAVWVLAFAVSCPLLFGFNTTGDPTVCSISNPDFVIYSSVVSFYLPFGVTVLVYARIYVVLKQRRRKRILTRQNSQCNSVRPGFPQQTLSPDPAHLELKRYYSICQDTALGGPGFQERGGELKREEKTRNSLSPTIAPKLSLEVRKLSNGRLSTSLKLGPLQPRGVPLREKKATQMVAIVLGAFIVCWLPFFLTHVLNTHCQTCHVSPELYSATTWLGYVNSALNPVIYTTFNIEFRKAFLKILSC
- experimental.details: Dopamine D3 receptor binding, [125I]-iodosulpride displacement, HEK-293 membranes
- condition.summary: selectivity, ratio of receptor binding constants D2L vs D3
Please go through the items and note down their Ki(D2)*/Ki(D3)*.
Give bare numbers.

| molecule | Ki(D2)*/Ki(D3)* |
| --- | --- |
| CCCN1C[C@@H]2C[C@@H](c3ccc(NS(=O)(=O)c4ccc(Br)cc4)cc3)[C@@H]2C1 | 24 |
| CCCN1C[C@@H]2C[C@@H](c3ccc(NS(=O)(=O)c4ccc(-c5cccs5)cc4)cc3)[C@@H]2C1 | 10 |
| CCCN1C[C@H]2C[C@H](c3ccc(NS(=O)(=O)c4ccc(C(C)C)cc4)cc3)[C@H]2C1 (relative stereo) [Example 3] | 45 |
| CCCN1C[C@@H]2C[C@@H](c3ccc(NS(=O)(=O)c4ccc(OC(F)(F)F)cc4)cc3)[C@@H]2C1 | 12 |

The following molecules each have a reported value; give each one's Ki(D2)*/Ki(D3)*.
1. CCCN1C[C@@H]2C[C@@H](c3ccc(NS(=O)(=O)c4ccc(N5CCC[C@@H]5COC)cc4)cc3)[C@@H]2C1
2. CCCN1C[C@H]2C[C@@H](c3ccc(NS(=O)(=O)c4ccc(C(C)C)cc4)cc3)[C@H]2C1 (relative stereo)
3. CCCN1C[C@@H]2C[C@@H](c3ccc(NS(=O)(=O)c4ccc(N5CCC5)cc4)cc3)[C@@H]2C1

13
39
26
